// provenance: patent US9073855B2

Target: GST-Bcl-2 (Homo sapiens, UniProt P10415)
Sequence (P10415 whole entry): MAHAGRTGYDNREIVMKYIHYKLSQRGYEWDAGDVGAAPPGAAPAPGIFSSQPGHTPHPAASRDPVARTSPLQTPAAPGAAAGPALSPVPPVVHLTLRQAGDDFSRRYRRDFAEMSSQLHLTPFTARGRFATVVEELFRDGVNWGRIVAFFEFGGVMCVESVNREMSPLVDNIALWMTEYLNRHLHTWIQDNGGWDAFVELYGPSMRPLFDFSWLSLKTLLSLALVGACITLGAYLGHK
Experiment: TR-FRET binding assay, GST-Bcl-2 with F-Bak peptide probe
Conditions: TR-FRET Binding Affinity, GST-Bcl-2, F-Bak peptide probe
Procedure: Tb-anti-GST antibody was purchased from Invitrogen (Catalog No. PV4216). […] The samples were then mixed on a shaker for 1 minute and incubated for an additional 3 hours at room temperature. […] Fluorescence was measured on the ENVISION plate reader (Perkin Elmer) using a 340/35 nm excitation filter and 520/525 (F-Bak peptide) and 495/510 nm (Tb-labeled […] antibody) emission filters. […]
ENDPOINT LABEL: pKi
Field pKi (float): negative decimal logarithm of the concentration in molar.

>>> observed("CC(C1=C(c2ccc(Cl)cc2)CC(C)(C)CC1)N1CCN(c2ccc(C(=O)NS(=O)(=O)c3ccc(NCC4CCOCC4)c([N+](=O)[O-])c3)c(Oc3ccc4[nH]ccc4c3)c2)CC1 (stereo not shown) [Example 253]")
9.85

[Q] Given the molecule CN(C)CCOc1ccc(-c2ccc(Cl)cc2)c(CN2CCN(c3ccc(C(=O)NS(=O)(=O)c4ccc(NC5CCN(CC(F)(F)F)CC5)c([N+](=O)[O-])c4)c(Oc4ccccc4)c3)CC2)c1 [Example 137] , what is its reported pKi?
[A] 9.52

[Q] Same for CC1(C)CCC(CN2CCN(c3ccc(C(=O)NS(=O)(=O)c4ccc(NCCCN5CCS(=O)(=O)CC5)c([N+](=O)[O-])c4)c(Oc4ccc5[nH]ccc5c4)c3)CC2)=C(c2ccc(Cl)cc2)C1 [Example 266]
[A] 9.74

[Q] Same for CN1CCN(Nc2ccc(S(=O)(=O)NC(=O)c3ccc(N4CCN(CC5=C(c6ccc(Cl)cc6)CC(C)(C)CC5)CC4)cc3Oc3ccc4[nH]ccc4c3)cc2[N+](=O)[O-])CC1 [Example 174]
[A] 9.98

[Q] Same for O=C(NS(=O)(=O)c1ccc(N2C(=O)C3CCC3C2=O)cc1)c1ccc(N2CCN(Cc3ccccc3-c3ccc(Cl)cc3)CC2)cc1Oc1ccccc1 (stereo not shown) [Example 28]
[A] 7.47

[Q] Same for CC1(C)CCC(CN2CCN(c3ccc(C(=O)NS(=O)(=O)c4cnc(OCC5CCOCC5)c(Cl)c4)c(Oc4cccc5[nH]ccc45)c3)CC2)=C(c2ccc(Cl)cc2)C1 [Example 387]
[A] 9.79

[Q] Same for O=C(NS(=O)(=O)c1ccc(NCCCN2CCOCC2)c([N+](=O)[O-])c1)c1ccc(N2CCN(Cc3ccccc3-c3ccc(Cl)cc3)CC2)cc1Oc1ccccc1 [Example 155]
[A] 9.32

[Q] Same for CC1(C)CCC(CN2CCN(c3ccc(C(=O)NS(=O)(=O)c4ccc(NC5(CO)CCOCC5)c([N+](=O)[O-])c4)c(Oc4ccc5[nH]ccc5c4)c3)CC2)=C(c2ccc(Cl)cc2)C1 [Example 240]
[A] 9.08

[Q] Same for CC1(C)CCC(CN2CCN(c3ccc(C(=O)NS(=O)(=O)c4ccc(NCC5(O)CCCCC5)c([N+](=O)[O-])c4)c(Oc4ccc5[nH]ccc5c4)c3)CC2)=C(c2ccc(Cl)cc2)C1 [Example 238]
[A] 9.37

[Q] Same for O=C(NS(=O)(=O)c1ccc(OCC2CCOCC2)c([N+](=O)[O-])c1)c1ccc(N2CCN(Cc3ccc(C(F)(F)F)cc3-c3ccc(Cl)cc3)CC2)cc1Oc1ccc2[nH]ccc2c1 [Example 340]
[A] 8.12
